Target: UniProt:P18825
Sequence (P18825 whole entry): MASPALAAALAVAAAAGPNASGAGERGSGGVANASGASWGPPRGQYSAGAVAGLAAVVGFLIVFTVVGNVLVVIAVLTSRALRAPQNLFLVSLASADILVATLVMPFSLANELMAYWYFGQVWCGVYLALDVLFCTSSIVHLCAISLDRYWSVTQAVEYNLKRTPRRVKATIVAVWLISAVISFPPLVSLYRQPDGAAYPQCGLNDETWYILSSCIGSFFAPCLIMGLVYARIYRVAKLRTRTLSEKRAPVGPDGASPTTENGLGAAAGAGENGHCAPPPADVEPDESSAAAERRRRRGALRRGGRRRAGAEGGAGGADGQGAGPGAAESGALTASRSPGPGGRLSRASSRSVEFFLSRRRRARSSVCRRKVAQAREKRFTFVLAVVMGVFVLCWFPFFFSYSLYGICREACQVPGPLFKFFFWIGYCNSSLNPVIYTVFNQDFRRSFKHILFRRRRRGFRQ
Format: binding
Details: read-out: α2C (Ki); HEK293 membranes, 1 nM [3H]RX821002, Ki ± standard deviation

# compound, Ki / nM
data = [
    ("CCS(=O)(=O)N1CCC[C@@H]2CN3CCc4cc(OC)ccc4[C@@H]3C[C@@H]21 [RS79948, reference compound]", 0.29),
]

###

Molecular target: UniProtKB P08913
Sequence (P08913 1-465): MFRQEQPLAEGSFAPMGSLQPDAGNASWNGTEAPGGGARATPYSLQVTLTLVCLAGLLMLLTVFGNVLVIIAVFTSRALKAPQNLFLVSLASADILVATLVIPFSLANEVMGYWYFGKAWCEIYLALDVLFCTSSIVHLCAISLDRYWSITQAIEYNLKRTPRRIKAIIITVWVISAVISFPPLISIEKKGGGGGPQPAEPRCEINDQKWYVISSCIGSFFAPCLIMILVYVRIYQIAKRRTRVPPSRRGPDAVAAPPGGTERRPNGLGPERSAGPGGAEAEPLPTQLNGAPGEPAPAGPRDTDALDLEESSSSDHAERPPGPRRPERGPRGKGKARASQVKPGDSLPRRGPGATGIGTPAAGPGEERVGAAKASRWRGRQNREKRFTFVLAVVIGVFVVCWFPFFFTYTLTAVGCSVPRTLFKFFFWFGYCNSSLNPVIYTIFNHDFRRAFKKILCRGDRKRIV
Format: binding
Listed below: Ki values for each entry.

# compound, assayed target, uom, Ki
rows = [
    ("COCc1c(C)nn(C)c1N1CCN(C[C@H]2COc3ccccc3O2)CC1", "UniProtKB P08913", "nM", 12.3),
    ("COCc1scnc1N1CCN(C[C@H]2COc3ccccc3O2)CC1", "UniProtKB P08913", "nM", 1.06),
    ("COCc1cccnc1N1CCN(C[C@H]2COc3ccccc3O2)CC1 [ORM-13070, reference compound]", "UniProtKB P08913", "nM", 2.8),
    ("COc1cccc(-n2nc(C)cc2N2CCN(C[C@H]3COc4ccccc4O3)CC2)n1", "UniProtKB P08913", "nM", 2.77),
    ("COc1ccccc1C1=CC(=O)N([C@H]2CCCN(C[C@H]3COc4ccccc4O3)C2)C1", "UniProtKB P08913", "nM", 458),
]

###

Listed below: Subtype Selectivity (α2A/α2C) values for each entry.
Target: UniProt:P18825
Format: binding
Conditions: ratio between Ki for α2A vs. α2C

# compound, Subtype Selectivity (α2A/α2C)
records = [
    ("COc1ccccc1C1=CC(=O)N([C@H]2CCCN(C[C@H]3COc4ccccc4O3)C2)C1 [Compound 3]", "751,000"),
    ("CCS(=O)(=O)N1CCC[C@@H]2CN3CCc4cc(OC)ccc4[C@@H]3C[C@@H]21 [RS79948, reference compound]", 0.55),
    ("COCc1scnc1N1CCN(C[C@H]2COc3ccccc3O2)CC1 [Compound 1]", 4.24),
    ("COc1cccc(-n2nc(C)cc2N2CCN(C[C@H]3COc4ccccc4O3)CC2)n1 [Compound 4]", 6.93),
    ("COCc1cccnc1N1CCN(C[C@H]2COc3ccccc3O2)CC1 [ORM-13070, reference compound]", 11.2),
    ("COCc1c(C)nn(C)c1N1CCN(C[C@H]2COc3ccccc3O2)CC1 [Compound 2]", 16.6),
]

###

Biological target: UniProtKB P18825
Format: binding
pKi: −log10 of the molar value.
Listed below: pKi values for each entry.
quantity name: pKi

# compound, quantity name, assay result
records = [
    ("COCc1scnc1N1CCN(C[C@H]2COc3ccccc3O2)CC1 [Compound 1]", "pKi", 9.60),
    ("COc1cccc(-n2nc(C)cc2N2CCN(C[C@H]3COc4ccccc4O3)CC2)n1 [Compound 4]", "pKi", 9.40),
    ("COCc1cccnc1N1CCN(C[C@H]2COc3ccccc3O2)CC1 [ORM-13070, reference compound]", "pKi", 9.60),
    ("COCc1c(C)nn(C)c1N1CCN(C[C@H]2COc3ccccc3O2)CC1 [Compound 2]", "pKi", 9.13),
]
